Experiment: A CellTox Green Cytotoxicity Assay to monitor cytotoxicity in HepG2 cells - 16 hour (AID 1224876); note: % is set by controls: 0 for no effect and ±100 for the full control effect; nearly all actives have a fitted effect of over 45% in size
Conditions: CellTox Green fluorescence; series mostly up to 76.8 µM
Results filed as inconclusive are left out. Activity calls are given as the source filed them. Calls come from the whole dose curve; as a rule, active = well fitted activation curve with a large enough effect in the repeat runs; inconclusive = weak or mixed curves; inactive = flat fitted curve, though single readings scatter.
One label from this list, please: YES = active, NO = inactive

Input line: Look up the recorded call for C(=C\c1ccccc1)/c1ccccc1 in this test.
Output line: NO

----------
Assay: qHTS assay to identify small molecule antagonists of the constitutive androstane receptor (CAR) signaling pathway - cell viability counter screen (AID 1224837); note: % is set by controls: 0 for no effect and ±100 for the full control effect; nearly all actives have a fitted effect of over 45% in size
Settings: HepG2-CYP2B6-hCAR viability, CellTiter-Fluor, 23 h, co-treated with 50 nM CITCO; series mostly up to 92.4 µM
Inconclusive results are not listed. Calls of active or inactive are those of the source. The call rests on the fitted dose curve; in most records, active means well fitted cell-killing curve with a large enough effect in the repeat runs; inconclusive means weak or mixed curves, or effect the other way; inactive means flat fitted curve, though single readings scatter.
Reply using exactly one outcome from true for active, false for inactive

CCC1NC(=O)c2cc(S(N)(=O)=O)c(Cl)cc2N1 (centres undefined) | false
CCC(C)COC(C)=O (centres undefined) | false

Input line: Please indicate how the test categorized Cc1ccc(Cl)c(Nc2ccccc2C(=O)O)c1Cl .
Output line: false

Input line: Any idea what this test logged for CCC1(CO)COCOC1 ?
Output line: false

Input line: Record lookup: outcome of this test for CCCCCCCCN ?
Output line: false

Input line: I'd appreciate the recorded outcome for NCCNCCO from this test.
Output line: false

Input line: # lookup: test call for C[C@@H](O[C@H]1OCCN(Cc2n[nH]c(=O)[nH]2)[C@H]1c1ccc(F)cc1)c1cc(C(F)(F)F)cc(C(F)(F)F)c1
Output line: false

Input line: Recorded test outcome, item CN1CCCC(CC2c3ccccc3Sc3ccccc32)C1 (centres undefined)
Output line: false

----------
Experiment: qHTS assay to identify small molecule agonists of the RXR signaling pathway - cell viability counter screen (AID 1159529);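 note: HEK 293T cells carrying an RXR-alpha UAS beta-lactamase reporter; % is set by controls: 0 for no effect and ±100 for the full control effect; nearly all actives have a fitted effect of over 50% in size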
Conditions: RXR-alpha-bla HEK293T viability, CellTiter-Glo, 16 h; series mostly up to 76.8 µM
Records with an inconclusive call do not appear. Active and inactive are the calls of the source. Calls come from the whole dose curve; as a rule, active = well fitted cell-killing curve with a large enough effect in the repeat runs; inconclusive = weak or mixed curves, or effect the other way; inactive = no such curve, though single readings can be large or run the other way.
Give your call using only these classes: active, inactive

The following compounds have reported results that may help.
COC(=O)C1=C(C)NC(C)=C(C(=O)O[C@@H]2CCCN(Cc3ccccc3)C2)[C@@H]1c1cccc([N+](=O)[O-])c1 | inactive
CC1(C)[C@@H](OC(=O)CCC(=O)O)CC[C@]2(C)[C@H]3C(=O)C=C4[C@@H]5C[C@@](C)(C(=O)O)CC[C@]5(C)CC[C@@]4(C)[C@]3(C)CC[C@@H]12 | inactive
O=C1NC(=O)c2cc([N+](=O)[O-])ccc21 | inactive
Cc1c(C)c2c(c(C)c1OC(=O)CCC(=O)OCCO)CC[C@@](C)(CCC[C@H](C)CCC[C@H](C)CCCC(C)C)O2 | inactive

Input line: Hi team, can someone confirm the assay call for Nc1cccc2c1CN(C1CCC(=O)NC1=O)C2=O (stereo not given) ?
Output line: inactive

Input line: GET /call?item= CCOC(C)=O returns the recorded outcome of this test.
Output line: inactive

Input line: GET /call?item= NNC(=O)CP(=O)(c1ccccc1)c1ccccc1 returns the recorded outcome of this test.
Output line: inactive

Input line: Please share the test call associated with C=C(C)C(=O)OCCCCCCCCCCCCC .
Output line: inactive

----------
Assay: A CellTox Green Cytotoxicity Assay to monitor cytotoxicity in HEK293 cells - 40 hour (AID 1224871); note: nearly all actives have a fitted effect of over 45% in size
Conditions: CellTox Green fluorescence; series mostly up to 76.8 µM
Results filed as inconclusive are left out. The source made the active and inactive calls. Calls follow the shape of the dose curve; as a rule, active = well fitted activation curve with a large enough effect in the repeat runs; inconclusive = weak or mixed curves; inactive = flat fitted curve, though single readings scatter.
Respond with a class label; see active, inactive

CC(C)=CCC1C(=O)N(c2ccccc2)N(c2ccccc2)C1=O | inactive
O=C(Cn1ccnc1[N+](=O)[O-])NCCO | inactive
Cc1ccccc1N=C(N)Nc1ccccc1C | inactive
CCCCCCCCCCCCCCN(CCO)CCO | active
CC1CC(C)C(=O)C1=O (configuration not stated) | inactive

Input line: I would be grateful if you could indicate the recorded call for CCCCCCCC/C=C\CCCCCCCCO .
Output line: inactive

Input line: Each molecule tested received a call. Report the one for OC(CCN1CCCC1)(c1ccccc1)C1CCCCC1 (configuration not stated) .
Output line: inactive

----------
Experiment: qHTS assay for small molecule agonists of the antioxidant response element (ARE) signaling pathway (AID 743202); for activation: % is set by controls: 0 for no effect and ±100 for the full control effect
Settings: HepG2 ARE-bla reporter, beta-lactamase FRET, 16 h; series mostly up to 73.3 µM
Excerpt: U.S. Tox21 Program National Center for Advancing Translational Sciences [NCATS] NIH Chemical Genomics Center [NCGC] U.S. Environmental Protection Agency [EPA] National Institutes of Environmental Health Sciences [NIEHS] National Toxicology Program [NTP] U.S. Food and Drug Administration [FDA] […] The activation of the report gene under culture conditions can be detected by fluorescence intensity. […]
Inconclusive results are not listed. Active and inactive are the calls of the source. Calls come from the whole dose curve; as a rule, active = well fitted activation curve with a large enough effect in the signal ratio in the repeat runs (not every such curve was filed as active); inconclusive = weak or mixed curves, or effect the other way; inactive = no such curve, though single readings can be large or run the other way; the % refers to the signal ratio.
Tick one outcome: 1 for active, -1 for inactive

As a guide, the following entries are already answered.
CC(C)(c1ccccc1)c1ccccc1 | -1
CCCCCCCC/C=C\CCCCCCCCO | -1
Brc1cc2ccccc2c2ccccc12 | -1
Cc1[nH]cnc1CN1CCc2c(c3ccccc3n2C)C1=O | -1
Oc1ccc(Cl)c2cccnc12 | 1
NC(=O)c1ccncc1 | -1

Input line: # fetch the recorded call for CS(=O)(=O)c1ccc(-c2cn3ccccc3n2)cc1 here
Output line: -1

Input line: Could you kindly confirm the outcome this assay logged for CCOc1cccc(-n2cc(C(=O)N3CCN(c4cc(C(=O)O)c5ccccc5c4)CC3)nc2-c2ccc(C)cc2)c1 ?
Output line: 1

Input line: Query: recorded result category for C=C/C(C)=C/C/C=C(\C)CCC=C(C)C in this test
Output line: 1

Input line: Dear all, I need the recorded test outcome for NC1[C@H]2CN(c3nc4c(cc3F)c(=O)c(C(=O)O)cn4-c3ccc(F)cc3F)C[C@@H]12 (some centres not stated) , thank you.
Output line: 1

Input line: Which outcome was entered for the compound O=c1[nH]ncc2ccccc12 in this test?
Output line: -1

Input line: Fill in: this test's call for C[C@@]12CCC[C@H]1[C@@H]1CC[C@H]3C[C@@H](O)CC[C@]3(C)[C@H]1CC2 is ___
Output line: -1

Input line: What did this assay record as the result for CN(C)CCN1C(=O)c2ccccc2N(C)c2ccccc21 ?
Output line: -1

Input line: Dear all, I need the recorded test outcome for CC=C(Cl)Cl , thank you.
Output line: -1

Input line: What call does the record list for COc1cc(N)c(Cl)cc1C(=O)NC1CCN(CCCOc2ccc(F)cc2)CC1OC (configuration not stated) ?
Output line: -1

Input line: Which result was noted for this compound in the test: CC(=O)OCC[N+](C)(C)C
Output line: -1

Input line: Recorded test call requested for CC(O)c1ccccc1 (configuration not stated)
Output line: -1

Input line: Can you look up the reported call for Brc1cc(Br)c(Oc2cc(Br)c(Br)cc2Br)cc1Br for me?
Output line: -1

Input line: Check the results log: what was the call for c1ccc2sc(SN(C3CCCCC3)C3CCCCC3)nc2c1 ?
Output line: 1

Input line: What is the recorded call for this compound in the test? O=C(Cn1ccnc1[N+](=O)[O-])NCCO
Output line: -1

----------
Assay: qHTS assay to identify small molecule that activate the aryl hydrocarbon receptor (AhR) signaling pathway - cell viability counter screen (AID 743086);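 note: HepG2 liver cells carrying the AhR DRE luciferase reporter; % is set by controls: 0 for no effect and ±100 for the full control effect; nearly all actives have a fitted effect of over 45% in size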
Settings: HepG2-AhR-luc viability, CellTiter-Fluor, 24 h; series mostly up to 70.3 µM
Inconclusive results are not listed. Calls of active or inactive are those of the source. Calls follow the shape of the dose curve; as a rule, active = well fitted cell-killing curve with a large enough effect in the repeat runs; inconclusive = weak or mixed curves, or effect the other way; inactive = flat fitted curve, though single readings scatter.
Measured metric: outcome

Consider the reported outcome for these compounds:
C=C(C)CCCC(C)CCO (configuration not stated) | inactive
CCOC(=O)[C@H](CCc1ccccc1)N[C@@H](C)C(=O)N(CC(=O)O)C1Cc2ccccc2C1 | inactive
N#CCCN(CCO)CCO | inactive
CN1C(C(=O)Nc2ccccn2)=C(O)c2sccc2S1(=O)=O | inactive
Oc1c(I)cc(I)c2cccnc12 | inactive
CCOC(C)=O | inactive

Now take the following compound into account.
Input line: Give the measured outcome of CN(C(=O)CN(CCO)CC(=O)N(C)C(C)(C)Cc1ccccc1)C(C)(C)Cc1ccccc1 .
Output line: inactive

----------
Target: Progesterone receptor (Homo sapiens)
Test: qHTS assay to identify small molecule agonists of the progesterone receptor (PR) signaling pathway (AID 1346784); note: % is set by controls: 0 for no effect and ±100 for the full control effect; nearly all actives have a fitted effect of over 30% in size
Conditions: PR-UAS-bla HEK293T, beta-lactamase FRET ratio, 16 h; series mostly up to 92.4 µM
From the text: U.S. Tox21 Program National Center for Advancing Translational Sciences [NCATS] NIH Chemical Genomics Center [NCGC] U.S. Environmental Protection Agency [EPA] National Institutes of Environmental Health Sciences [NIEHS] National Toxicology Program [NTP] U.S. Food and Drug Administration [FDA] […] Endocrine disrupting chemicals (EDCs) and their interactions with steroid hormone receptors like PR causes disruption of normal endocrine function. […]
Results filed as inconclusive are left out. Calls of active or inactive are those of the source. Calls come from the whole dose curve.
Measured metric: activation

Some entries whose results are on file:
OC[C@H]1O[C@@H](n2cnc3c(=S)nc[nH]c32)[C@H](O)[C@@H]1O | inactive
CCOc1cccc(-n2cc(C(=O)N3CCN(c4cc(C(=O)O)c5ccccc5c4)CC3)nc2-c2ccc(C)cc2)c1 | inactive
CC(C)(C)C(=O)C(=O)O | inactive
CN1CC(=O)N2[C@H](c3ccc4c(c3)OCO4)c3[nH]c4ccccc4c3C[C@@H]2C1=O | inactive
O=C1c2ccccc2C(=O)C1(O)O | inactive
CNC(=O)c1cnn(-c2nc(N)c3ncn([C@@H]4O[C@H](CO)[C@@H](O)[C@H]4O)c3n2)c1 | inactive

Input line: activation for CC(C)c1nc(CN(C)C(=O)N[C@H](C(=O)N[C@@H](Cc2ccccc2)C[C@H](O)[C@H](Cc2ccccc2)NC(=O)OCc2cncs2)C(C)C)cs1 ?
Output line: inactive

Input line: Returns the measured activation for the input compound. Input: CO[C@]1(NC(=O)CSC(F)F)C(=O)N2C(C(=O)O)=C(CSc3nnnn3CCO)CO[C@H]21
Output line: inactive

Input line: Suppose we examine the compound CS(=O)(=O)c1ccc(-c2cn3ccccc3n2)cc1 ; what activation value has been reported?
Output line: inactive

Input line: Looking for the measured activation of CC(C)C=O , can you help?
Output line: inactive

Input line: Any idea what its activation is? The compound is O=C(CCc1ccc(O)cc1)c1c(O)cc(O)cc1O
Output line: inactive

Input line: Using the record for CCCC(C(=O)OCCN(CC)CC)(c1ccccc1)c1ccccc1 , report its activation.
Output line: inactive

Input line: What does the data say about its activation? Entry: CC(C)(O)c1ccc(CNC(=O)c2cccnc2Oc2ccc3nonc3c2)cc1
Output line: inactive

Input line: Sample C[C@H]1C[C@H](O)c2ccsc2S1(=O)=O — what was its activation?
Output line: inactive
